assay: Dissociation constant, pKa of the compound; format: physicochemical
Catalogue of pKa readings, one per entry.

{"columns": ["CHEMICAL STRING", "pKa"],
 "data": [
  ["CC(=N)Nc1nsc2ccccc12", 6.99],
  ["N=C(Nc1nsc2ccccc12)c1ccc(Cl)cc1", 4.84],
  ["N=C(Nc1nsc2ccccc12)c1ccccc1", 5.4]
]}
